Assay: in vitro
Assay type: cell-based, human
Settings: human, 6-tg resistant ahh-1 cells, 0.25 μg/ml at 24 hrs; 6-TG^r AHH-1 cells; read-out: Relative Survival
recorded endpoint: viability at 24 h (%)

COc1ccc2nc3cc(Cl)ccc3c(NCCCNCCCl)c2c1: 48

----------
Assay: in vitro
Details: human, ahh-1 cells, RELATIVE SURVIVAL
recorded endpoint: viability at 48 h, 100 µM (%)

c1ccc2c(c1)-c1cccc3cccc-2c13: 45

----------
Assay: in vitro
Conditions: human, ahh-1 cells, RELATIVE SURVIVAL, 300 μM × 48 hours; induction BNF
recorded endpoint: viability at 48 h, 300 µM

C/C=C(/C)C(=O)O[C@H]1CCN2CC=C(COC(=O)[C@@](O)([C@H](C)OC)C(C)(C)O)[C@H]12 [LSCP, lasiocarpine]: 81%
